Numbers sourced from the supplement of paper PMC6555819.

system: PPARg:RXRa 90nM:30nM, anti-RXR (NR concentration 90 nM, RXRa partner concentration 30 nM); assay: PBM binding z-score (relative to random genomic background probes); higher = stronger binding; sequences stand for … in GC…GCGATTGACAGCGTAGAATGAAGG
PARAMETER: PBM binding z-score
Answers are plain numbers.

# RESIDUE CODES, PBM binding z-score
measured = [
    ("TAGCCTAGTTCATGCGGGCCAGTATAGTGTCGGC", -0.319),
    ("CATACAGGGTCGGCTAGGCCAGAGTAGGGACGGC", -0.513),
]

Take each entry in turn and give its PBM binding z-score.
1. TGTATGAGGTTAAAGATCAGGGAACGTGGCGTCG
2. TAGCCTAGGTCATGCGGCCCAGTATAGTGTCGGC
3. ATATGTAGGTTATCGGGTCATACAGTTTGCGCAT
4. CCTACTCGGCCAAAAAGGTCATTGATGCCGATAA
5. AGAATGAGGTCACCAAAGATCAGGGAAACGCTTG
6. GCTAGTTGGTCAGTAAAAGGTGACACACCGGTCG
7. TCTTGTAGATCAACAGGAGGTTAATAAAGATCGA

1: 4.93; 2: 1.04; 3: 5.61; 4: 2.27; 5: 7.63; 6: 1.02; 7: 2.08

Give measured PBM binding z-score for every item shown.
1. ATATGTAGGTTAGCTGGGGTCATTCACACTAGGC
2. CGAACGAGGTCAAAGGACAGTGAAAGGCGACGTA
3. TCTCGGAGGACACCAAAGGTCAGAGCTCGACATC

[4.69, 8.31, 3.22]

----------
Please provide measured PBM binding z-score for the entries that follow.
system: PPARg:RXRa IVT, anti-PPARg (NR concentration 270 nM, RXRa partner concentration 90 nM); test: PBM binding z-score (relative to random genomic background probes); higher = stronger binding; sequences stand for … in GC…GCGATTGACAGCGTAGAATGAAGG

Known results for sequences:
# RESIDUE CODES, PBM binding z-score
rows = [
    ("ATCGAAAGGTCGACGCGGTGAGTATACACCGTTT", 1.36),
    ("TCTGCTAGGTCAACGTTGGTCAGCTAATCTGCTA", 4.38),
    ("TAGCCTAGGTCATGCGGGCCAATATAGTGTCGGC", 2.94),
    ("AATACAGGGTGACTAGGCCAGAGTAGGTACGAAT", 3.48),
    ("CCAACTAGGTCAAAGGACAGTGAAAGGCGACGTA", 7.88),
]

Here's the next entry for you.
Form: sequence = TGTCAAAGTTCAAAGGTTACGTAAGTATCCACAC ; PBM binding z-score = 5.16

----------
test system: LXRa homodimer (NR concentration 270 nM); assay: PBM binding z-score (relative to random genomic background probes); higher = stronger binding; sequences stand for … in GC…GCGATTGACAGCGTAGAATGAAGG
Classification field: Criterion met = PBM binding z-score at or over 4; Criterion not met = PBM binding z-score under 4.

Reference set, count: 4
# RESIDUE CODES, CAT
rows = [
    ("ATCGAAAGGTCGTGAGGTAAGTATACAGAAAGGC", "Criterion not met"),
    ("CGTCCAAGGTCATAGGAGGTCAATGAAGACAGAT", "Criterion met"),
    ("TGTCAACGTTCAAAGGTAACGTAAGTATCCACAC", "Criterion not met"),
    ("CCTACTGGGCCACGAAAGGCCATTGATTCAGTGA", "Criterion not met"),
]

Now turn to the next sequence.
Does the reported PBM binding z-score for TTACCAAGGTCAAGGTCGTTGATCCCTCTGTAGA fall at or above the 4 mark?
Criterion not met
